- Target or test system: T1, P-cadherin-ECD1-3-Fc protein (human P-cadherin-Fc) (human, UniProt P22223 108-440)
- T1 construct: Construct was expressed with signal peptide and pro-peptide (PACE co-transfected to process the propeptide); not shown: hinge and CH2 and CH3 domains of human IgG1
- T1 sequence (P22223 108-440): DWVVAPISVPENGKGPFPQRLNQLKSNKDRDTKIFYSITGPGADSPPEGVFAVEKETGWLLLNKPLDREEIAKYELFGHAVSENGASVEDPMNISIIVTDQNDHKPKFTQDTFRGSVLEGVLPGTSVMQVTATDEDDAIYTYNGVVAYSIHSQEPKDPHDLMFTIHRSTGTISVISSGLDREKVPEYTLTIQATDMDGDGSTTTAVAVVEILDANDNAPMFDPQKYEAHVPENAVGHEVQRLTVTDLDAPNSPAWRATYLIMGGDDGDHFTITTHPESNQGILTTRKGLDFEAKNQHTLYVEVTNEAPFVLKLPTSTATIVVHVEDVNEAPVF
- Assay info: phage scFv ELISA, coated P-cadherin-ECD1-3-Fc
Define the label as criterion met when Z Score is strictly less than 0.1 and as criterion not met in all remaining cases.

Field: example entries. Status: answers known.
anti-P-cadherin scFv 153 alanine-mutant L3.2-Ala (scFv, V domains shown, scFv on phage) VH: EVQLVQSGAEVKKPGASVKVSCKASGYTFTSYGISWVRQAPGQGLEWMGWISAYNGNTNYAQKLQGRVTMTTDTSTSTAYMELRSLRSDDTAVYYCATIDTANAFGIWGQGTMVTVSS VL: QSVLTQPPSVSAAPGQKVTISCSGSSSNIGNNYVSWYQQLPGTAPKLLIYDNNKRPSGIPDRFSGSKSGTSATLGITGLQTGDEADYYCGAWDSSLSGVVFGGGTKLTVL    criterion met
anti-P-cadherin scFv 153 alanine-mutant L1.10-Ala (scFv, V domains shown, scFv on phage) VH: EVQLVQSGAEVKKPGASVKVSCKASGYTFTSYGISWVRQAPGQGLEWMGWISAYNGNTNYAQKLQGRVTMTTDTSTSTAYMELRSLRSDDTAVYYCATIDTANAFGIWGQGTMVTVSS VL: QSVLTQPPSVSAAPGQKVTISCSGSSSNIGNAYVSWYQQLPGTAPKLLIYDNNKRPSGIPDRFSGSKSGTSATLGITGLQTGDEADYYCGTWDSSLSGVVFGGGTKLTVL    criterion not met
anti-P-cadherin scFv 153 alanine-mutant L3.9-Ala (scFv, V domains shown, scFv on phage) VH: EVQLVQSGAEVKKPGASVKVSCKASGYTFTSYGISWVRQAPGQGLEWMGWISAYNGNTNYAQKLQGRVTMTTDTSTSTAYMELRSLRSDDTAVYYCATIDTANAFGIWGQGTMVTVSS VL: QSVLTQPPSVSAAPGQKVTISCSGSSSNIGNNYVSWYQQLPGTAPKLLIYDNNKRPSGIPDRFSGSKSGTSATLGITGLQTGDEADYYCGTWDSSLSAVVFGGGTKLTVL    criterion not met

In the following, a different binder is considered.
Qu. Bench note: check whether anti-P-cadherin scFv 153 alanine-mutant L2.2-Ala (scFv, V domains shown, scFv on phage) VH: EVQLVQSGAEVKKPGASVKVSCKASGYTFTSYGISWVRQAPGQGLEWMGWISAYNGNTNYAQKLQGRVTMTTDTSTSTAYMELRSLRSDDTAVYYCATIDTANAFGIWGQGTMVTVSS VL: QSVLTQPPSVSAAPGQKVTISCSGSSSNIGNNYVSWYQQLPGTAPKLLIYDANKRPSGIPDRFSGSKSGTSATLGITGLQTGDEADYYCGTWDSSLSGVVFGGGTKLTVL shows Z Score below 0.1
Ans. criterion met
